Reference source for all entries: paper PMC12040169

Test: in vitro
Details: human, hela cells, % viability
Endpoint label: viability at 28.5 h, 10 µM

{"Molecule": "COc1ccc(C(=O)N(Cc2ccco2)Cc2cc3ccccc3nc2O)cc1", "Value measured": "95.9%"}
{"Molecule": "CS(=O)(=O)c1ccc(-c2nc(N)cc3ccccc23)cc1", "Value measured": "96.1%"}
{"Molecule": "CCC(C)c1nnc(C2(c3ccc(Br)cc3)CCOCC2)o1 (stereo not shown)", "Value measured": "99.7%"}
{"Molecule": "CN1CCC(N(C)C(=O)c2ccc3nccnc3c2)CC1", "Value measured": "108%"}
{"Molecule": "O=[N+]([O-])c1ccccc1N/N=C/c1c[nH]c2ccccc12", "Value measured": "89.6%"}
{"Molecule": "Cc1cc(C)n(-c2nc3ccccc3nc2N2CCN(S(=O)(=O)c3ccccc3)CC2)n1", "Value measured": "79.9%"}
{"Molecule": "COc1nccnc1OC1CCN(CCc2ccccc2)CC1", "Value measured": "95%"}
{"Molecule": "Cc1cc2c(=O)n(CC(=O)NCc3ccccn3)cnc2s1", "Value measured": "91.1%"}
{"Molecule": "O=C(CCCc1ccccc1)Nc1scc2c(=O)oc3ccccc3c12", "Value measured": "90.1%"}
{"Molecule": "CCC1CCCCN1Cc1nc2c(c(=O)n(C)c(=O)n2C)n1CCOC (stereo not shown)", "Value measured": "104%"}
